Please go through the items and note down their TGI.
Test system: SNB-75 CNS
assayExplanation: NCI tumour cell line growth inhibition, 48 h

If you can, please state the reported TGI value of C1COCCOP2(N3CC3)=NP(N3CC3)(=NP(N3CC3)(N3CC3)=N2)OCCOCCO1 (stereo not given) .
> 100 µM

If you can, please state the reported TGI value of Cc1ccc2c(c1)C/C(=C\c1ccccc1C(=O)O)C2=O .
> 100 µM

If you can, please state the reported TGI value of CC(=O)NC1=CC(=O)C=C(Cl)C1=O .
> 100 µM

If you can, please state the reported TGI value of CC(=O)Nc1ccc2c3c(cc(O)c2c1)N(C(=O)CCCCCC(=O)Nc1ccc2c4c(cc(O)c2c1)N(C(=O)OC(C)(C)C)CC4CCl)CC3CCl (stereo not given) .
5.22 µM

If you can, please state the reported TGI value of CCOc1ccccc1NC(=O)C(=O)c1c(O)c2ccc(O)cc2oc1=O .
> 100 µM
